Activity for assorted molecules
Species: Canis lupus familiaris
procedure summary: In vitro activity against canine methemoglobin reductase at 33 uM
Parameters: unit not given here
measured property: Activity

molecule: O=C(NC1CCCCC1)c1cnc2ccc(F)cc2c1O
observed measurement: 0.064

molecule: O=C(NC1CCCCC1)c1cnc2cc(Cl)c(F)cc2c1O
observed measurement: 0.064

molecule: CN1CCN(C(=O)c2cnc3ccc([N+](=O)[O-])cc3c2O)CC1
observed measurement: 0.064

molecule: CN1CCN(C(=O)c2cnc3ccc(F)cc3c2O)CC1
observed measurement: 0.064

molecule: CCN(CC)CCCC(C)NC(=O)c1cnc2ccc([N+](=O)[O-])cc2c1O (configuration not stated)
observed measurement: 0.064

molecule: CCCCCCCCNC(=O)c1cnc2ccc([N+](=O)[O-])cc2c1O
observed measurement: 0.064

molecule: CN1CCN(C(=O)c2cnc3cc(Cl)c(F)cc3c2O)CC1
observed measurement: 0.064

molecule: CCN(CC)CCCC(C)NC(=O)c1cnc2cc(Cl)c(F)cc2c1O (configuration not stated)
observed measurement: 0.064

molecule: CCCCCCCCNC(=O)c1cnc2ccc(F)cc2c1O
observed measurement: 0.064

molecule: CCCCCCCCNC(=O)c1cnc2cc(Cl)c(F)cc2c1O
observed measurement: 0.064

molecule: O=C(NC1CCCCC1)c1cnc2ccc([N+](=O)[O-])cc2c1O
observed measurement: 0.064

molecule: CCN(CC)CCCC(C)NC(=O)c1cnc2ccc(F)cc2c1O (configuration not stated)
observed measurement: 0.064

Hello, the source for this data is ChEMBL document CHEMBL1131693, in case you need it.
